The reported measurements were obtained from the supplement of paper PMC12042874.

For each entry below, report its amyloid nucleation score value.
Experiment: amyloid nucleation score (Sup35N fusion, yeast selection) (log enrichment); library NNK2; higher = more nucleation; inactive = no reads after selection;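 further: zero at mode of non-aggregating sequences after 7 days selection at 30°C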

[ask] Return reported amyloid nucleation score; argument: FSVSSLVAVMNNTHLVVSGG
[reply] 2.34

[ask] Next record, please: SQYFYMFWMSRATITNTIMP
[reply] -0.217

[ask] Consider next the sequence RCRHLLSMPLPVSFEMDGRG in the same way.
[reply] 2.85

[ask] # iterate: YGKADCPSLGVYMRL
[reply] 2.25

[ask] Next sequence: SNSRKMCDMGKDDNGYKGTH
[reply] -0.483

[ask] For PKVVPMISRIAVPL then?
[reply] -0.788

[ask] Same question for WFRYNCHDFSLTNPWRHHNL please.
[reply] 0.507

[ask] Note, next up: VVKRARLSWPFIARKYTSMV
[reply] 0.116
